Value source: patent US8247211B2

The entries below are paired with their reported MIC Coagulase Negative Staphylococcus (GC 4549).
- Test system: Staphylococcus sp.
- assay_procedure: In vitro antibacterial evaluation: minimum inhibitory concentration (MIC), broth dilution method
- Format: cell-based
- measurement_context: strain GC 4549
Numbered stars: 1 amine (or outer) side, 2 acyl side, 3 side chain; on linkers, the order of the positions; unused ones are H or OH. Square brackets hold non-standard residues; d marks the D form. Peptide text beside a SMILES is read from it. * marks the point of attachment. ξ: configuration not given here. X1 = N=C1NCC(C(O)C(N[*:1])C(=O)[*:2])N1C1OC(CO)C(O)C(O)C1O; ξEnduracididine(βξ-OH,4'ξ) = N=C1NCC(C(O)C(N)C(=O)O)N1; X2 = OCC1OC(OC2C(CO)OC(*)C(O)C2O)C(O)C(O)C1O; Diphenylacetyl = O=C(C(c1ccccc1)c1ccccc1)*; ξPhe(βξ-Me) = CC(c1ccccc1)C(N)C(=O)O

Some entries whose results are on file:
molecule	measured_on	value_observed
CC(c1ccccc1)C1NC(=O)CNC(=O)C(COC(=O)C(c2ccccc2)c2ccccc2)NC(=O)C(C(O)C2CNC(=N)N2C2OC(CO)C(O)C(O)C2O)NC(=O)C(C(O)C2CNC(=N)N2)NC(=O)C(Cc2ccc(OC3OC(CO)C(OC4OC(CO)C(O)C(O)C4O)C(O)C3O)cc2)NC1=O (stereo not drawn) [Example 96a] (cyclo(G[ξPhe(βξ-Me)]Y(X2)[ξEnduracididine(βξ-OH,4'ξ)][X1]S(Diphenylacetyl)); configuration not given here)	Staphylococcus sp.	64 µg/mL
Cc1ccc(Oc2cccc(C3OCC4OC(OC5C(CO)OC(Oc6ccc(CC7NC(=O)C(C(C)c8ccccc8)NC(=O)CNC(=O)C(CO)NC(=O)C(C(O)C8CNC(=N)N8C8OC(CO)C(O)C(O)C8O)NC(=O)C(C(O)C8CNC(=N)N8)NC7=O)cc6I)C(O)C5O)C(O)C(O)C4O3)c2)cc1 (stereo not drawn)	Staphylococcus sp.	8 µg/mL

Here's the next entry for you.
Fill blank: measured MIC Coagulase Negative Staphylococcus (GC 4549) of the molecule CC(c1ccccc1)C1NC(=O)CNC(=O)C(CO)NC(=O)C(C(O)C2CNC(=N)N2C2OC(CO)C(O)C(O)C2O)NC(=O)C(C(O)C2CNC(=N)N2)NC(=O)C(Cc2ccc(OC3OC(CO)C(OC4OC5COC(CC(C)(C)C)OC5C(O)C4O)C(O)C3O)cc2)NC1=O (stereo not drawn) is ____. 1 µg/mL
